Data credit: patent US11395857B2

assay: Biodistribution of 177Lu-labeled αMSH analogues in mice bearing B16F10 mouse melanoma; type: in vivo, C57BL/6J mice; settings: mouse, bone, iv, total radioactivity; 24 h p.i., C57BL/6J mice, B16F10 melanoma; read-out: Biodistribution, Bone
readout_name: tissue uptake at 24 h (%ID/g)
All answers are understood in %ID/g, so give the number only.

Ask: Entry under review: CCCC[C@H](NC(=O)CN1CCC(NC(=O)CN2CCN(CC(=O)O)CCN(CC(=O)O)CCN(CC(=O)O)CC2)CC1)C(=O)N[C@H]1CC(=O)NCCCC[C@@H](C(N)=O)N(C)C(=O)[C@H](Cc2c[nH]c3ccccc23)NC(=O)[C@H](CCCNC(=N)N)N(C)C(=O)[C@@H](Cc2ccccc2)NC(=O)[C@H](Cc2c[nH]cn2)NC1=O [^177Lu-labeled CCZ01106, metal not drawn] . Reported tissue uptake at 24 h?
Reply: 0.06

----------
assay: Biodistribution of 177Lu-labeled αMSH analogues in mice bearing SK-MEL-1 human melanoma; details: male, NRG (NOD.Cg-Rag1tm1Mom Il2rgtm1Wjl/SzJ), mouse, bone, total radioactivity
readout_name: tissue uptake at 4 h (%ID/g)
All answers are understood in %ID/g, so give the number only.

The cases that follow already have their tissue uptake at 4 h on record.
[[record]]
compound = "CCCC[C@H](NC(=O)CN1CCC(NC(=O)[C@H](CCCCNC(=O)CN2CCN(CC(=O)O)CCN(CC(=O)O)CCN(CC(=O)O)CC2)NC(=O)CNC(=O)CCCc2ccc(I)cc2)CC1)C(=O)N[C@H]1CC(=O)NCCCC[C@@H](C(N)=O)N(C)C(=O)[C@H](Cc2c[nH]c3ccccc23)NC(=O)[C@H](CCCNC(=N)N)N(C)C(=O)[C@@H](Cc2ccccc2)NC(=O)[C@H](Cc2c[nH]cn2)NC1=O [^177Lu-labeled CCZ01148, metal not drawn]"
observed_result = 1.38

[[record]]
compound = "CCCC[C@H](NC(=O)CN1CCC(NC(=O)[C@H](CCCCNC(=O)CN2CCN(CC(=O)O)CCN(CC(=O)O)CCN(CC(=O)O)CC2)NC(=O)[C@H](CCC(=O)O)NC(=O)CCCc2ccc(I)cc2)CC1)C(=O)N[C@H]1CC(=O)NCCCC[C@@H](C(N)=O)N(C)C(=O)[C@H](Cc2c[nH]c3ccccc23)NC(=O)[C@H](CCCNC(=N)N)N(C)C(=O)[C@@H](Cc2ccccc2)NC(=O)[C@H](Cc2c[nH]cn2)NC1=O [^177Lu-labeled CCZ01118, metal not drawn]"
observed_result = 0.35


Ask: Entry under review: CCCC[C@H](NC(=O)CN1CCC(NC(=O)[C@H](CCCCNC(=O)CN2CCN(CC(=O)O)CCN(CC(=O)O)CCN(CC(=O)O)CC2)NC(=O)CNC(=O)CCCc2ccc(-c3ccc(C)cc3)cc2)CC1)C(=O)N[C@H]1CC(=O)NCCCC[C@@H](C(N)=O)N(C)C(=O)[C@H](Cc2c[nH]c3ccccc23)NC(=O)[C@H](CCCNC(=N)N)N(C)C(=O)[C@@H](Cc2ccccc2)NC(=O)[C@H](Cc2c[nH]cn2)NC1=O [^177Lu-labeled CCZ01158, metal not drawn] . Reported tissue uptake at 4 h?
Reply: 0.8

----------
This section presents compounds with their documented excreta dose per gram or mL at 1 h values.
experiment: Biodistribution of 177Lu-labeled αMSH analogues in mice bearing B16F10 mouse melanoma; type: in vivo, C57BL/6J mice; conditions: mouse, urine, iv, total radioactivity; 1 h p.i., C57BL/6J mice, B16F10 melanoma
In your response, the unit should come after the numeric value.

[[record]]
compound = "CCCC[C@H](NC(=O)CN1CCC(NC(=O)CN2CCN(CC(=O)O)CCN(CC(=O)O)CCN(CC(=O)O)CC2)CC1)C(=O)N[C@H]1CC(=O)NCCCC[C@@H](C(N)=O)NC(=O)[C@H](Cc2c[nH]c3ccccc23)NC(=O)[C@H](CCCNC(=N)N)NC(=O)[C@@H](Cc2ccccc2)NC(=O)[C@H](Cc2c[nH]cn2)NC1=O [^177Lu-labeled CCZ01048, metal not drawn, reference compound]"
observed_result = "110 %ID/g"


Ask: Entry under review: CCCC[C@H](NC(=O)CN1CCC(NC(=O)CN2CCN(CC(=O)O)CCN(CC(=O)O)CCN(CC(=O)O)CC2)CC1)C(=O)N[C@H]1CC(=O)NCCCC[C@@H](C(N)=O)N(C)C(=O)[C@H](Cc2c[nH]c3ccccc23)N(C)C(=O)[C@H](CCCNC(=N)N)N(C)C(=O)[C@@H](Cc2ccccc2)NC(=O)[C@H](Cc2c[nH]cn2)N(C)C1=O [^177Lu-labeled CCZ01099, metal not drawn] . Reported excreta dose per gram or mL at 1 h?
Reply: 227 %ID/g

----------
experiment: Biodistribution of 177Lu-labeled αMSH analogues in mice bearing SK-MEL-1 human melanoma; conditions: male, NRG (NOD.Cg-Rag1tm1Mom Il2rgtm1Wjl/SzJ), mouse, tumour/blood, total radioactivity, 1 h p.i., NRG mice, SK-MEL-1 melanoma
readout_name: tissue to tissue ratio at 1 h
// print number alone

[[record]]
compound = "CCCC[C@H](NC(=O)CN1CCC(NC(=O)[C@H](CCCCNC(=O)CN2CCN(CC(=O)O)CCN(CC(=O)O)CCN(CC(=O)O)CC2)NC(=O)CNC(=O)CCCc2ccc(I)cc2)CC1)C(=O)N[C@H]1CC(=O)NCCCC[C@@H](C(N)=O)N(C)C(=O)[C@H](Cc2c[nH]c3ccccc23)NC(=O)[C@H](CCCNC(=N)N)N(C)C(=O)[C@@H](Cc2ccccc2)NC(=O)[C@H](Cc2c[nH]cn2)NC1=O [^177Lu-labeled CCZ01148, metal not drawn]"
observed_result = 0.21


# input for lookup
Ask: Entry under review: CCCC[C@H](NC(=O)CN1CCC(NC(=O)[C@H](CCCCNC(=O)CN2CCN(CC(=O)O)CCN(CC(=O)O)CCN(CC(=O)O)CC2)NC(=O)[C@H](CCC(=O)O)NC(=O)CCCc2ccc(I)cc2)CC1)C(=O)N[C@H]1CC(=O)NCCCC[C@@H](C(N)=O)N(C)C(=O)[C@H](Cc2c[nH]c3ccccc23)NC(=O)[C@H](CCCNC(=N)N)N(C)C(=O)[C@@H](Cc2ccccc2)NC(=O)[C@H](Cc2c[nH]cn2)NC1=O [^177Lu-labeled CCZ01118, metal not drawn] . Reported tissue to tissue ratio at 1 h?
Reply: 1.08

----------
assay: Biodistribution of 177Lu-labeled αMSH analogues in mice bearing SK-MEL-1 human melanoma; conditions: male, NRG (NOD.Cg-Rag1tm1Mom Il2rgtm1Wjl/SzJ), mouse, adrenal glands, total radioactivity
This section presents compounds with their documented tissue uptake at 4 h values.
All answers are understood in %ID/g, so give the number only.

[[record]]
compound = "CCCC[C@H](NC(=O)CN1CCC(NC(=O)[C@H](CCCCNC(=O)CN2CCN(CC(=O)O)CCN(CC(=O)O)CCN(CC(=O)O)CC2)NC(=O)CNC(=O)CCCc2ccc(-c3ccc(C)cc3)cc2)CC1)C(=O)N[C@H]1CC(=O)NCCCC[C@@H](C(N)=O)N(C)C(=O)[C@H](Cc2c[nH]c3ccccc23)NC(=O)[C@H](CCCNC(=N)N)N(C)C(=O)[C@@H](Cc2ccccc2)NC(=O)[C@H](Cc2c[nH]cn2)NC1=O [^177Lu-labeled CCZ01158, metal not drawn]"
observed_result = 3.54

[[record]]
compound = "CCCC[C@H](NC(=O)CN1CCC(NC(=O)[C@H](CCCCNC(=O)CN2CCN(CC(=O)O)CCN(CC(=O)O)CCN(CC(=O)O)CC2)NC(=O)CNC(=O)CCCc2ccc(I)cc2)CC1)C(=O)N[C@H]1CC(=O)NCCCC[C@@H](C(N)=O)N(C)C(=O)[C@H](Cc2c[nH]c3ccccc23)NC(=O)[C@H](CCCNC(=N)N)N(C)C(=O)[C@@H](Cc2ccccc2)NC(=O)[C@H](Cc2c[nH]cn2)NC1=O [^177Lu-labeled CCZ01148, metal not drawn]"
observed_result = 5.69


# input for lookup
Ask: Entry under review: CCCC[C@H](NC(=O)CN1CCC(NC(=O)[C@H](CCCCNC(=O)CN2CCN(CC(=O)O)CCN(CC(=O)O)CCN(CC(=O)O)CC2)NC(=O)[C@H](CCC(=O)O)NC(=O)CCCc2ccc(I)cc2)CC1)C(=O)N[C@H]1CC(=O)NCCCC[C@@H](C(N)=O)N(C)C(=O)[C@H](Cc2c[nH]c3ccccc23)NC(=O)[C@H](CCCNC(=N)N)N(C)C(=O)[C@@H](Cc2ccccc2)NC(=O)[C@H](Cc2c[nH]cn2)NC1=O [^177Lu-labeled CCZ01118, metal not drawn] . Reported tissue uptake at 4 h?
Reply: 1.21

----------
assay: In vivo stability in mouse urine at 1 h p.i. (radio-HPLC); set-up: species or system C57BL/6J mice
readout_name: In vivo urine stability, intact tracer (%)
All answers are understood in %, so give the number only.

Ask: Entry under review: CCCC[C@H](NC(=O)CN1CCC(NC(=O)CN2CCN(CC(=O)O)CCN(CC(=O)O)CCN(CC(=O)O)CC2)CC1)C(=O)N[C@H]1CC(=O)NCCCC[C@@H](C(N)=O)N(C)C(=O)[C@H](Cc2c[nH]c3ccccc23)NC(=O)[C@H](CCCNC(=N)N)N(C)C(=O)[C@@H](Cc2ccccc2)NC(=O)[C@H](Cc2c[nH]cn2)NC1=O [[^68Ga]Ga-CCZ01106] [metal not drawn] . Reported In vivo urine stability, intact tracer?
Reply: 82.5
